- Assay Remarks: Solubility of naphthoquinone diazides in ethylene glycol monomethyl ether
- Format: physicochemical
- Assay Setup: 26° C., stirred for 2 hours, 2 g in 50 g, crystalline samples, substantially free from amorphous fractions
- Protocol: The solubility of the new naphthoquinone diazides, as compared with the known bis-1,2-naphthoquinone-2-diazide-5-sulfonic acid ester of 2,2-bis-(4-hydroxyphenyl)-propane (comparison compound V), was determined as follows: 2 g of the naphthoquinone diazide were suspended in each case in 50 g of ethylene glycol monomethyl ether and stirred for 2 hours at 26° C. […] The solubilities in ethylene glycol monomethyl ether, listed in Table 2, were calculated from the difference to the quantity employed: […]
Criterion: Solubility (%) meeting or surpassing 2%. Met: yes (1). Not met: no (0).

INPUT: Does COC(C)CCOC(=O)CCC(C)(c1ccc(OS(=O)(=O)c2cccc3c2C=CC(=[N+]=[N-])C3=O)cc1)c1ccc(OS(=O)(=O)c2cccc3c2C=CC(=[N+]=[N-])C3=O)cc1 (stereo not drawn) have a reported Solubility (%) of at least 2%?
OUTPUT: no (0)

INPUT: Does COC(=O)CCC(C)(c1ccc(OS(=O)(=O)c2cccc3c2C=CC(=[N+]=[N-])C3=O)cc1)c1ccc(OS(=O)(=O)c2cccc3c2C=CC(=[N+]=[N-])C3=O)cc1 (stereo not drawn) have a reported Solubility (%) of at least 2%?
OUTPUT: no (0)

INPUT: Does CCOCCOC(=O)CCC(C)(c1ccc(OS(=O)(=O)c2cccc3c2C=CC(=[N+]=[N-])C3=O)cc1)c1ccc(OS(=O)(=O)c2cccc3c2C=CC(=[N+]=[N-])C3=O)cc1 (stereo not drawn) have a reported Solubility (%) of at least 2%?
OUTPUT: yes (1)

INPUT: Does CCOC(=O)CCC(C)(c1ccc(OS(=O)(=O)c2cccc3c2C=CC(=[N+]=[N-])C3=O)cc1)c1ccc(OS(=O)(=O)c2cccc3c2C=CC(=[N+]=[N-])C3=O)cc1 (stereo not drawn) have a reported Solubility (%) of at least 2%?
OUTPUT: no (0)

INPUT: Does CCCCOC(=O)C(c1ccc(OS(=O)(=O)c2cccc3c2C=CC(=[N+]=[N-])C3=O)cc1)c1ccc(OS(=O)(=O)c2cccc3c2C=CC(=[N+]=[N-])C3=O)cc1 (stereo not drawn) have a reported Solubility (%) of at least 2%?
OUTPUT: yes (1)

INPUT: Does COCCOC(=O)CCC(C)(c1ccc(OS(=O)(=O)c2cccc3c2C=CC(=[N+]=[N-])C3=O)cc1)c1ccc(OS(=O)(=O)c2cccc3c2C=CC(=[N+]=[N-])C3=O)cc1 (stereo not drawn) have a reported Solubility (%) of at least 2%?
OUTPUT: no (0)

INPUT: Does CCCOC(=O)C(c1ccc(OS(=O)(=O)c2cccc3c2C=CC(=[N+]=[N-])C3=O)cc1)c1ccc(OS(=O)(=O)c2cccc3c2C=CC(=[N+]=[N-])C3=O)cc1 (stereo not drawn) have a reported Solubility (%) of at least 2%?
OUTPUT: no (0)

INPUT: Does CC(C)(c1ccc(OS(=O)(=O)c2cccc3c2C=CC(=[N+]=[N-])C3=O)cc1)c1ccc(OS(=O)(=O)c2cccc3c2C=CC(=[N+]=[N-])C3=O)cc1 [V, reference compound] have a reported Solubility (%) of at least 2%?
OUTPUT: no (0)

INPUT: Does CCOCCOC(=O)C(c1ccc(OS(=O)(=O)c2cccc3c2C=CC(=[N+]=[N-])C3=O)cc1)c1ccc(OS(=O)(=O)c2cccc3c2C=CC(=[N+]=[N-])C3=O)cc1 (stereo not drawn) have a reported Solubility (%) of at least 2%?
OUTPUT: yes (1)
